FYI, the data here is from ChEMBL document CHEMBL3112528.

Test: Clearance in dog at 0.2 mg/kg, iv
Assay type: ADME, organism-based, Canis lupus familiaris
Design: dose 0.2 mg/kg, route intravenous
Conditions: in vivo
QUANTITY: clearance (mL/min/kg)
Numbers only; they are read as mL/min/kg.

Ask: // clearance lookup, key: "CCS(=O)(=O)c1ccccc1[C@H]1[C@@H](C(=O)O)CCN1C(=O)[C@H](Nc1ccc2c(N)nccc2c1)c1ccc(F)c(OC)c1"
Reply: 14

###

Test: Clearance in rat at 0.5 mg/kg, iv and 1 mg/kg, po
Assay type: ADME, organism-based
Conditions: in vivo
QUANTITY: clearance (mL/min/kg)
Numbers only; they are read as mL/min/kg.

Ask: // clearance lookup, key: "CCOc1ccc(F)c([C@@H](Nc2ccc3c(N)nccc3c2)C(=O)N2CCC[C@@H]2c2cc(NC(=O)OC)ccc2S(=O)(=O)C(C)C)c1"
Reply: 26
